Target: Recombinant mouse PD-L1 (Mus musculus)
Construct: Fc (Fc chimera); purchased R&D Systems 1019-B7-100
Sequence (Q9EP73 with tags, fused parts or gaps limits assumed): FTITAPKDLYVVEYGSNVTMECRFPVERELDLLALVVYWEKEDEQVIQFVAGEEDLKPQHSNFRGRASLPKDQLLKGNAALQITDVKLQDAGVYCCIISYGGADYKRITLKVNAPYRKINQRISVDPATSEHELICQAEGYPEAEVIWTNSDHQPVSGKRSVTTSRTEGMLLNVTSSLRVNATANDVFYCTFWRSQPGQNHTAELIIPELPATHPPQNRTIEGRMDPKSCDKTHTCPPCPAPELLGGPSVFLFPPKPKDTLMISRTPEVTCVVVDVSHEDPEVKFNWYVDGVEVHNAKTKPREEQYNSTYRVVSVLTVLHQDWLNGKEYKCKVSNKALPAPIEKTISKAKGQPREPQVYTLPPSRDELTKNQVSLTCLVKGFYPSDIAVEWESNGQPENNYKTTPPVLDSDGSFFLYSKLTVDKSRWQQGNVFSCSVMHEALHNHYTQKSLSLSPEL
Assay: Rescue of mouse splenocyte proliferation in the presence of recombinant PD-L1 (CFSE proliferation assay)
Type: cell-based
Conditions: 100 nM compound; CFSE-labelled C57 BL6 mouse splenocytes + anti-CD3/CD28 + PD-L1 (100 ng/mL), 72 h; normalised to stimulated splenocytes as 100%; read-out: Percent rescue of splenocyte proliferation (@100 nM)
Description: Example 15: Rescue of Mouse Splenocyte Proliferation in the Presence of Recombinant PD-L1 Recombinant mouse PD-L1 (rm-PDL-1, cat no: 1019-B7-100; R&D Systems) were used as the source of PD-L1. […] CFSE is a dye that passively diffuses into cells and binds to intracellular proteins. […] Cells were harvested and washed thrice with ice cold FACS buffer and % proliferation was analysed by flow cytometry with 488 nm excitation and 521 nm emission filters. […]
Attribute Measured: activation at 0.1 µM (%)

Illustrative cases are given below, each with its answer.
{"Compound": "N[C@@H](CC(=O)O)c1noc([C@@H]2CCCN2C(=O)N[C@@H](CC(=O)O)C(=O)O)n1", "activation at 0.1 µM [%]": 49}
{"Compound": "CC(O)[C@H](NC(=O)N[C@@H](CC(N)=O)c1nc([C@H](C)N)no1)C(=O)O (some centres unmarked)", "activation at 0.1 µM [%]": 28}
{"Compound": "NCCCC[C@H](N)c1noc([C@H](CCC(=O)O)NC(=O)N[C@@H](CO)C(=O)O)n1", "activation at 0.1 µM [%]": 60}
{"Compound": "NC(=O)C[C@H](NS(=O)(=O)C1CC1)c1nc([C@@H](N)CO)no1", "activation at 0.1 µM [%]": 71}

1. NC(=O)CC[C@H](NC(=O)N[C@@H](CC(N)=O)c1nc([C@@H](N)CO)no1)C(=O)O
2. N[C@@H](Cc1ccc(O)cc1)c1noc([C@@H]2C(O)CCN2C(=O)N[C@@H](Cc2ccc(O)cc2)C(=O)O)n1 (some centres unmarked)
3. CC(O)[C@H](NC(=O)N[C@@H](Cc1ccccc1)c1nc([C@@H](N)CO)no1)C(=O)O (some centres unmarked)
*Q* Put the items in sequence by activation at 0.1 µM, from largest down. Give the labels in the order requested.
*A* 3, 2, 1

a. NC(=O)C[C@H](NC(=O)N[C@@H](Cc1ccccc1)C(=O)O)c1nc([C@@H](N)CO)no1
b. CCCCCCNC(=O)CC[C@H](NC(=O)N[C@@H](CCC(N)=O)C(=O)N[C@H](C(=O)O)C(C)O)c1nc([C@@H](N)CO)no1 (some centres unmarked)
c. CC(C)[C@H](NC(=O)N[C@@H](CC(N)=O)c1nc([C@@H](N)CCCCN)no1)C(=O)O
*Q* Put the items in sequence by activation at 0.1 µM, from largest down. Give the labels in the order requested.
*A* a, b, c
(a: 75%, b: 42%, c: 17%)

Values from patent US10781189B2
